- Experimental Details: Midazolam PK when administered with midostaurin
- Recorded Conditions: human, plasma, oral, 4 mg, AUC0–inf, adjusted geometric mean, plasma; Midazolam (day 1), midazolam 4 mg alone, n = 18
Observed Property: AUC(0-inf) (ng·h/mL)
Record the value in ng·h/mL, omitting the unit from your answer.

Suppose we examine the compound Cc1ncc2n1-c1ccc(Cl)cc1C(c1ccccc1F)=NC2 [Midazolam] ; what AUC(0-inf) value has been reported? 49.7

---

- Experimental Details: Midostaurin PK when administered with rifampicin
- Recorded Conditions: human, plasma, oral, t max, median, plasma; Placebo + midostaurin arm, rifampicin study, n = 20
Observed Property: Tmax (h)
Numeric only. Scale: h

Which Tmax is reported for this molecule? CO[C@@H]1[C@H](N(C)C(=O)c2ccccc2)C[C@H]2O[C@]1(C)n1c3ccccc3c3c4c(c5c6ccccc6n2c5c31)C(=O)NC4O (mixture of isomers) 3

This collection of values is drawn from paper PMC3834177.
